# target.or.test.system: HisAviTEV-hSTING (139-342) human wild-type protein (Homo sapiens, UniProt Q86WV6, H232R)
# Construct: made in house; host or cells: E. coli Rosetta 2 (DE3), co-expressed with BirA (1-321)
# Sequence (Q86WV6 with tags, fused parts or gaps H232R): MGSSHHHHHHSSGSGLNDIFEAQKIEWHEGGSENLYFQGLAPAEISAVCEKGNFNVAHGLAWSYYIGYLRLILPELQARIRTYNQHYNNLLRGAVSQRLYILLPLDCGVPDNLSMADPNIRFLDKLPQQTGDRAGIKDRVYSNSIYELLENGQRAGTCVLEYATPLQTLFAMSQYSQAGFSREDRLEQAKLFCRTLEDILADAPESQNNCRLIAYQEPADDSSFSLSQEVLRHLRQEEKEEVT
# assay.details: Protein thermal shift assay, STING C-terminal binding domain protein
# details: test compound final concentration 0.5 mM
assay.metric: ΔTm Hu-WT (°C)

These solved cases illustrate the format of a correct answer.
>  <compound>
O=c1[nH]cnc2c1ncn2[C@@H]1O[C@@H]2COP(=O)(S)O[C@H]3[C@@H](O)[C@H](n4cc5c6c(ncnc64)NCCC5)O[C@@H]3COP(=O)(S)O[C@@H]1[C@@H]2O (single isomer, unassigned) [25b]

>  <target.or.test.system>
HisAviTEV-hSTING (139-342) human wild-type protein (Homo sapiens, UniProt Q86WV6, H232R)

>  <unit.of.measure>
°C

>  <ΔTm Hu-WT>
10.6

$$$$
>  <compound>
O=C(CO)NCCn1cnc2c(ncn2[C@@H]2O[C@@H]3COP(=O)(S)O[C@H]4[C@@H](O)[C@H](n5cc6c7c(ncnc75)NCCC6)O[C@@H]4COP(=O)(S)O[C@@H]2[C@@H]3O)c1=O (single isomer, unassigned) [7b]

>  <target.or.test.system>
HisAviTEV-hSTING (139-342) human wild-type protein (Homo sapiens, UniProt Q86WV6, H232R)

>  <unit.of.measure>
°C

>  <ΔTm Hu-WT>
7.2

$$$$

P = O=C(CO)NCCn1cnc2c(ncn2[C@@H]2O[C@@H]3COP(=O)(S)O[C@H]4[C@@H](F)[C@H](n5cc6c7c(ncnc75)SCCC6)O[C@@H]4COP(=O)(S)O[C@@H]2[C@@H]3O)c1=O (single isomer, unassigned) [50b]
Q = NCCNc1nc(N)c2ncn([C@@H]3O[C@@H]4COP(=O)(S)O[C@H]5[C@@H](F)[C@H](n6cc7c8c(ncnc86)NCCC7)O[C@@H]5COP(=O)(S)O[C@@H]3[C@@H]4O)c2n1 (single isomer, unassigned) [37b]
## Task Two entries are listed, P and Q . Which one carries the higher ΔTm Hu-WT? Answer with the label corresponding to your selection.
## Result P

----------
# target.or.test.system: HisAviTEV-hSTING (139-342) human REF-mutated protein (Homo sapiens)
# Construct: made in house; host or cells: E. coli Rosetta 2 (DE3), co-expressed with BirA (1-321)
# Sequence (Q86WV6 with tags, fused parts or gaps, change not shown): as the sequence (Q86WV6 with tags, fused parts or gaps H232R) above, with R133H counted along it
# assay.details: Protein thermal shift assay, STING C-terminal binding domain protein
# details: test compound final concentration 0.5 mM
assay.metric: ΔTm at 500 µM (°C)

>  <compound>
O=P1(S)OC[C@H]2O[C@@H](n3cc4c5c(ncnc53)NCCC4)[C@H](O)[C@@H]2OP(=O)(S)OC[C@H]2O[C@@H](n3cnc4c(CO)ncnc43)[C@H](O1)[C@@H]2O (single isomer, unassigned) [17a]

>  <unit.of.measure>
°C

>  <ΔTm at 500 µM>
2.7

$$$$

P = O=c1[nH]cnc2c1ncn2[C@@H]1O[C@@H]2COP(=O)(S)O[C@H]3[C@@H](O)[C@H](n4cc5c6c(ncnc64)NCCC5)O[C@@H]3COP(=O)(S)O[C@@H]1[C@@H]2O (single isomer, unassigned) [25a]
Q = O=c1c2ncn([C@@H]3O[C@@H]4COP(=O)(O)O[C@H]5[C@@H](F)[C@H](n6cc7c8c(ncnc86)NCCC7)O[C@@H]5COP(=O)(O)O[C@@H]3[C@@H]4O)c2ncn1CCO
R = O=c1c2ncn([C@@H]3O[C@@H]4COP(=O)(S)O[C@H]5[C@@H](F)[C@H](n6cc7c8c(ncnc86)SCCC7)O[C@@H]5COP(=O)(S)O[C@@H]3[C@@H]4O)c2ncn1CCO (single isomer, unassigned) [48a]
## Task rank_up(items): orders items by reported ΔTm at 500 µM in ascending numerical order. Reply with the labels, ordered as the question asks.
## Result Q, P, R
(Q: 3.4 °C, P: 6.2 °C, R: 9.3 °C)

A = O=c1c2ncn([C@@H]3O[C@@H]4COP(=O)(S)O[C@H]5[C@@H](F)[C@H](n6cc7c8c(ncnc86)NCCC7)O[C@@H]5COP(=O)(S)O[C@@H]3[C@@H]4O)c2ncn1CCO (single isomer, unassigned) [34a]
B = O=c1c2ncn([C@@H]3O[C@@H]4COP(=O)(S)O[C@H]5[C@@H](F)[C@H](n6cc7c8c(ncnc86)NCCC7)O[C@@H]5COP(=O)(O)O[C@@H]3[C@@H]4O)c2ncn1CCO (some centres unmarked) [53a]
C = Nc1nc(CO)nc2c1ncn2[C@@H]1O[C@@H]2COP(=O)(S)O[C@H]3[C@@H](O)[C@H](n4cc5c6c(ncnc64)NCCC5)O[C@@H]3COP(=O)(S)O[C@@H]1[C@@H]2O (single isomer, unassigned) [12a]
## Task rank_up(items): orders items by reported ΔTm at 500 µM in ascending numerical order. Reply with the labels, ordered as the question asks.
## Result C, B, A

1 = NCCn1cnc2c(ncn2[C@@H]2O[C@@H]3COP(=O)(S)O[C@H]4[C@@H](F)[C@H](n5cc6c7c(ncnc75)SCCC6)O[C@@H]4COP(=O)(S)O[C@@H]2[C@@H]3O)c1=O (single isomer, unassigned) [49b]
2 = O=c1c2ncn([C@@H]3O[C@@H]4COP(=O)(S)O[C@H]5[C@@H](O)[C@H](n6cc7c8c(ncnc86)NCCC7)O[C@@H]5COP(=O)(S)O[C@@H]3[C@@H]4O)c2ncn1CCCO (single isomer, unassigned) [26b]
## Task Which of these two has the smaller recorded ΔTm at 500 µM: 1 or 2 ? Answer with the label corresponding to your selection.
## Result 2

1 = NCCn1cnc2c(ncn2[C@@H]2O[C@@H]3COP(=O)(S)O[C@H]4[C@@H](F)[C@H](n5cc6c7c(ncnc75)NCCC6)O[C@@H]4COP(=O)(S)O[C@@H]2[C@@H]3O)c1=O (single isomer, unassigned) [35a]
2 = Nc1ncnc2c1ncn2[C@@H]1O[C@@H]2COP(=O)(S)O[C@H]3[C@@H](O)[C@H](n4cc5c6c(ncnc64)OCCC5)O[C@@H]3COP(=O)(S)O[C@@H]1[C@@H]2O (single isomer, unassigned) [20a]
## Task Which of these two has the smaller recorded ΔTm at 500 µM: 1 or 2 ? Answer with the label corresponding to your selection.
## Result 2

----------
# target.or.test.system: HisAviTEV-hSTING (139-342) human AQ-mutated protein (Homo sapiens, UniProt Q86WV6, G230A/H232R/R293Q)
# Construct: made in house; host or cells: E. coli Rosetta 2 (DE3), co-expressed with BirA (1-321)
# Sequence (Q86WV6 with tags, fused parts or gaps G230A/H232R/R293Q): as the sequence (Q86WV6 with tags, fused parts or gaps H232R) above, with G131A, R194Q counted along it
# assay.details: Protein thermal shift assay, STING C-terminal binding domain protein
# details: test compound final concentration 0.5 mM
assay.metric: ΔTm at 500 µM (°C)

These solved cases illustrate the format of a correct answer.
>  <compound>
Nc1ncnc2c1ncn2[C@@H]1O[C@@H]2COP(=O)(S)O[C@H]3[C@@H](O)[C@H](n4cc5c6c(ncnc64)OCCC5)O[C@@H]3COP(=O)(S)O[C@@H]1[C@@H]2O (single isomer, unassigned) [20a]

>  <unit.of.measure>
°C

>  <ΔTm at 500 µM>
9.7

$$$$
>  <compound>
O=C(CO)NCCn1cnc2c(ncn2[C@@H]2O[C@@H]3COP(=O)(S)O[C@H]4[C@@H](O)[C@H](n5cc6c7c(ncnc75)NCCC6)O[C@@H]4COP(=O)(S)O[C@@H]2[C@@H]3O)c1=O (single isomer, unassigned) [7a]

>  <unit.of.measure>
°C

>  <ΔTm at 500 µM>
9.7

$$$$

1 = O=P1(S)OC[C@H]2O[C@@H](n3cc4c5c(ncnc53)NCCC4)[C@H](O)[C@@H]2OP(=O)(S)OC[C@H]2O[C@@H](n3cnc4c(CO)ncnc43)[C@H](O1)[C@@H]2O (single isomer, unassigned) [17a]
2 = O=c1c2ncn([C@@H]3O[C@@H]4COP(=O)(S)O[C@H]5[C@@H](F)[C@H](n6cc7c8c(ncnc86)NCCC7)O[C@@H]5COP(=O)(S)O[C@@H]3[C@@H]4O)c2ncn1CCO (single isomer, unassigned) [34a]
## Task Which of these two has the smaller recorded ΔTm at 500 µM: 1 or 2 ? Answer with the label corresponding to your selection.
## Result 1
(1: 10.7 °C, 2: 18.9 °C)

----------
# target.or.test.system: HisAviTEV-hSTING (139-342) human AQ-mutated protein (Homo sapiens, UniProt Q86WV6, G230A/H232R/R293Q)
# Construct: made in house; host or cells: E. coli Rosetta 2 (DE3), co-expressed with BirA (1-321)
# assay.details: Protein thermal shift assay, STING C-terminal binding domain protein
# details: test compound final concentration 0.5 mM
assay.metric: ΔTm Hu-AQ (°C)

>  <molecule>
Nc1nc2c(ncn2[C@@H]2O[C@@H]3COP(=O)(S)O[C@H]4[C@@H](O)[C@H](n5cc6c7c(ncnc75)NCCC6)O[C@@H]4COP(=O)(S)O[C@@H]2[C@@H]3O)c(=O)[nH]1 (single isomer, unassigned) [4b]

>  <unit.of.measure>
°C

>  <ΔTm Hu-AQ>
13.1

$$$$
>  <molecule>
O=C(CO)NCCn1cnc2c(ncn2[C@@H]2O[C@@H]3COP(=O)(S)O[C@H]4[C@@H](F)[C@H](n5cc6c7c(ncnc75)NCCC6)O[C@@H]4COP(=O)(S)O[C@@H]2[C@@H]3O)c1=O (single isomer, unassigned) [36b]

>  <unit.of.measure>
°C

>  <ΔTm Hu-AQ>
11.8

$$$$
>  <molecule>
O=C(CO)NCCn1cnc2c(ncn2[C@@H]2O[C@@H]3COP(=O)(S)O[C@H]4[C@@H](O)[C@H](n5cc6c7c(ncnc75)NCCC6)O[C@@H]4COP(=O)(S)O[C@@H]2[C@@H]3O)c1=O (single isomer, unassigned) [7b]

>  <unit.of.measure>
°C

>  <ΔTm Hu-AQ>
9.5

$$$$

Origin of the recorded values: patent US12370263B2
